Tested on: L1210
assayComment: In vitro cytotoxicity determined against murine leukemia L1210 cells by MTT assay
Format: functional, cell-based
condition: Mus musculus
Mark True only for IC50 values smaller than 2000 nM; exact matches and larger values are False.

Completed entries (count: 4):
q: In the record for CCCCCCCCCCCCn1c2nc(=O)[nH]c(=O)c-2cc2c1C(=O)C(OC)=CC2=O , is IC50 less than 2000 nM?
a: False

q: In the record for CCCn1c2nc(=O)n(C)c(=O)c-2cc2c1C(=O)C(=O)c1ccccc1-2 , is IC50 less than 2000 nM?
a: True

q: In the record for CCCCCCCCCCCCn1c2nc(=O)[nH]c(=O)c-2cc2c1C(=O)C(=O)c1ccccc1-2 , is IC50 less than 2000 nM?
a: False

q: In the record for CCCCCCCCCCCCn1c2nc(=O)n(-c3ccccc3)c(=O)c-2cc2c1C(=O)C(=O)c1ccccc1-2 , is IC50 less than 2000 nM?
a: False

More entries:
q: In the record for CCCCCCCCn1c2nc(=O)n(C)c(=O)c-2cc2c1C(=O)C(=O)c1ccccc1-2 , is IC50 less than 2000 nM?
a: True

q: In the record for CCCCCCCCCCCCn1c2nc(=O)n(-c3ccccc3)c(=O)c-2cc2c1C(=O)C(OC)=CC2=O , is IC50 less than 2000 nM?
a: False

====

Tested on: L1210
assayComment: In vitro cytotoxicity determined against murine leukemia L1210 cells by MTT assay
Format: functional, cell-based
condition: Mus musculus
attributeMeasured: pIC50
pIC50 is defined as minus the log10 of a concentration measured in mol/L.

q: Quick one: give measured pIC50 for CCCCCCn1c2nc(=O)n(C)c(=O)c-2cc2c1C(=O)C(=O)c1ccccc1-2
a: 7.00

q: Quick one: give measured pIC50 for CCCCn1c2nc(=O)n(-c3ccccc3)c(=O)c-2cc2c1C(=O)C(=O)c1ccccc1-2
a: 5.31

q: Quick one: give measured pIC50 for CCCCCCCCCCCCn1c2nc(=O)n(C)c(=O)c-2cc2c1C(=O)C(OC)=CC2=O
a: 7.00

q: Quick one: give measured pIC50 for CCCCn1c2nc(=O)n(C)c(=O)c-2cc2c1C(=O)C(OC)=CC2=O
a: 5.92

q: Quick one: give measured pIC50 for CCCCCCn1c2nc(=O)[nH]c(=O)c-2cc2c1C(=O)C(OC)=CC2=O
a: 5.32

More entries:
q: Quick one: give measured pIC50 for CCCCn1c2nc(=O)[nH]c(=O)c-2cc2c1C(=O)C(=O)c1ccccc1-2
a: 5.68

q: Quick one: give measured pIC50 for CCCCCCCCn1c2nc(=O)[nH]c(=O)c-2cc2c1C(=O)C(OC)=CC2=O
a: 5.36

q: Quick one: give measured pIC50 for CCCCCCn1c2nc(=O)n(C)c(=O)c-2cc2c1C(=O)C(OC)=CC2=O
a: 6.30

====

Property: IC50; scope: individual compounds
Tested on: L1210
assayComment: In vitro cytotoxicity determined against murine leukemia L1210 cells by MTT assay
Type: functional, cell-based
condition: Mus musculus

Examples with their reported IC50 follow.
q: Quick one: give measured IC50 for CCCCCCCCn1c2nc(=O)n(-c3ccccc3)c(=O)c-2cc2c1C(=O)C(=O)c1ccccc1-2
a: 3100 nM

q: Quick one: give measured IC50 for CCCCn1c2nc(=O)n(C)c(=O)c-2cc2c1C(=O)C(=O)c1ccccc1-2
a: 400 nM

q: Quick one: give measured IC50 for CCn1c2nc(=O)n(C)c(=O)c-2cc2c1C(=O)C(=O)c1ccccc1-2
a: 100 nM

q: Quick one: give measured IC50 for CCCCCCCCCCCCn1c2nc(=O)n(C)c(=O)c-2cc2c1C(=O)C(=O)c1ccccc1-2
a: 300 nM

Kindly review the next compound as well.
q: Quick one: give measured IC50 for CCCCCCCCn1c2nc(=O)[nH]c(=O)c-2cc2c1C(=O)C(=O)c1ccccc1-2
a: 4200 nM

Where do these numbers come from? They come from ChEMBL document CHEMBL1129883.
